- target_or_test_system: μ-opioid receptor (Homo sapiens)
- Construct: expressed in transfected cells; host or cells: HEK-293
- Sequence (P35372 whole entry, species assumed): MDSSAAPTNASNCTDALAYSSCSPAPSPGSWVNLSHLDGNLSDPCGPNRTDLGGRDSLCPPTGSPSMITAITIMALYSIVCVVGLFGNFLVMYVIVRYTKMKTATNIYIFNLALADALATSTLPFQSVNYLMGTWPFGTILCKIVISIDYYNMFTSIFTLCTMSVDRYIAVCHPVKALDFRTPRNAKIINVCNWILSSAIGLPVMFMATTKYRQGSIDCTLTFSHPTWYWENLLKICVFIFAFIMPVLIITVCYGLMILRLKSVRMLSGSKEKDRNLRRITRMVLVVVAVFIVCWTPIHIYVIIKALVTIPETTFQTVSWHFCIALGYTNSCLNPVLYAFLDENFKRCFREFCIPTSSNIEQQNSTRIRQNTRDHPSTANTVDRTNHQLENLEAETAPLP
- experimental_details: μ-opioid receptor [35S]GTPγS functional assay
- Assay type: biochemical
- applied_conditions: membranes with recombinant μ opioid receptor, HEK-293 cells
reported_metric: log10(EC50) (log10 of the value in nM)
Units before log transform: nM; reported quantity: EC50; transform: log10.

Record excerpt, results attached:
{"columns": ["molecule", "observed_measurement"],
 "data": [
  ["CN1CC[C@]23CCN(C(=O)C4CC4)C[C@H]2[C@H]1Cc1ccc(O)cc13", 2.86],
  ["CC(=O)N1CC[C@]23CCN(C)[C@H](Cc4ccc(O)cc42)[C@@H]3C1", 2.47],
  ["CN1CC[C@]23CC(=O)N(CC4CC4)C[C@H]2[C@H]1Cc1ccc(O)cc13", 2.94],
  ["CN1CC[C@]23CC(=O)NC[C@H]2[C@H]1Cc1ccc(O)cc13", 3.14],
  ["CC(C)C(=O)N1CC[C@]23CCN(C)[C@H](Cc4ccc(O)cc42)[C@@H]3C1", 2.87],
  ["CN1CC[C@]23CCNC[C@H]2[C@H]1Cc1ccc(O)cc13", 3.92]
]}

Here is the next item to consider.
Which log10(EC50) is reported with μ-opioid receptor (Homo sapiens) for this entry: `CN1CC[C@]23CCN(C(=O)Nc4ccccc4)C[C@H]2[C@H]1Cc1ccc(O)cc13` ?
2.18
